Hey, just so you know, these numbers are from patent US20250042994A1.

Molecular target: T1, human CD19 on CHO-K1-human CD19 cells (human, UniProt P15391 20-556)
T1 construct: whole, on cells; also called CHO-K1-human CD19-2C8
T1 sequence (looked up): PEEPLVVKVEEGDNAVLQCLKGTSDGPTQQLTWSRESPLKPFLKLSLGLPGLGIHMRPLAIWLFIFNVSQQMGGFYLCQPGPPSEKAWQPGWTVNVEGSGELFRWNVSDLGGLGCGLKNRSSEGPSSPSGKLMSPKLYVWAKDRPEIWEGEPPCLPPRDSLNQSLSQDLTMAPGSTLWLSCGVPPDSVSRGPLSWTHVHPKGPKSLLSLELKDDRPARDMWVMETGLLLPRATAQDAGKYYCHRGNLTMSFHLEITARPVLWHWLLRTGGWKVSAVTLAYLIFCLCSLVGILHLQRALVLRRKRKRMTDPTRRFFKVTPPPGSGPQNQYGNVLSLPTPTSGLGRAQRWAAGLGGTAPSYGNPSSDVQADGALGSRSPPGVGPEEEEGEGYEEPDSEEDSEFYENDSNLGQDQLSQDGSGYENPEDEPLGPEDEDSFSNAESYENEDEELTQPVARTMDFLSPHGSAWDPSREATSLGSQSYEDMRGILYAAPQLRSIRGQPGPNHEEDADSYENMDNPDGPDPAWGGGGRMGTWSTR
Experiment: FACS on CHO-K1-human CD19 cells

- binder: "F3.121.4-L2H2 (antibody, mouse IgG1, kappa, V domains shown, humanized antibody of F3.121.4, VL2+VH2, murine IgG1 constant regions) VH: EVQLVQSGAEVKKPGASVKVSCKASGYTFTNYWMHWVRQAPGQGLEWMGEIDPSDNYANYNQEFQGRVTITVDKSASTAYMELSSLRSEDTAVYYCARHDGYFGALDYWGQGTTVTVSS VL: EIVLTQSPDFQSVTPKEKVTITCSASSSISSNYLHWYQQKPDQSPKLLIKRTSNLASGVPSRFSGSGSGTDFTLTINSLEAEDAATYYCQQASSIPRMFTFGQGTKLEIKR"
  Maximum mean fluorescence intensity / MFI: 52200
- binder: "F3.121.4-L1H1 (antibody, mouse IgG1, kappa, V domains shown, humanized antibody of F3.121.4, VL1+VH1, murine IgG1 constant regions) VH: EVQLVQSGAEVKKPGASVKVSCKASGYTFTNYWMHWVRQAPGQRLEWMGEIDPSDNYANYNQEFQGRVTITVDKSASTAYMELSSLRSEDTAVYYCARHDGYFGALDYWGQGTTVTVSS VL: EIVLTQSPATLSLSPGERATLSCSASSSISSNYLHWYQQKPGQAPRFLIYRTSNLASGIPARFSGSGSGTDFTLTISSLEPEDFAVYYCQQASSIPRMFTFGQGTKLEIKR"
  Maximum mean fluorescence intensity / MFI: 51600
- binder: "F3.121.4-L3H1 (antibody, mouse IgG1, kappa, V domains shown, humanized antibody of F3.121.4, VL3+VH1, murine IgG1 constant regions) VH: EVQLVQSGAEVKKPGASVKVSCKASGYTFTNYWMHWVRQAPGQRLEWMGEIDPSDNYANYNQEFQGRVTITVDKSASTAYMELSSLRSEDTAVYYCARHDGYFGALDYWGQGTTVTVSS VL: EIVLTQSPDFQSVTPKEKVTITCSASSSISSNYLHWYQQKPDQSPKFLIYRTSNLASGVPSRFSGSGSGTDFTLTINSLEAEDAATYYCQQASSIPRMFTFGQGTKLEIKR"
  Maximum mean fluorescence intensity / MFI: 53500
- binder: "F3.121.4-L3H2 (antibody, mouse IgG1, kappa, V domains shown, humanized antibody of F3.121.4, VL3+VH2, murine IgG1 constant regions) VH: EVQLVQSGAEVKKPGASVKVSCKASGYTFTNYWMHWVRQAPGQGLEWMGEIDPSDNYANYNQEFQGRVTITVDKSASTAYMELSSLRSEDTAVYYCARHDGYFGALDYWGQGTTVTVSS VL: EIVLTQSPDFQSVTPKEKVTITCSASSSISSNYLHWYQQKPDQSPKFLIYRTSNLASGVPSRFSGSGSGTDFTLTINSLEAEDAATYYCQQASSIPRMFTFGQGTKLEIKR"
  Maximum mean fluorescence intensity / MFI: 52100
